Target: P.1 Spike (SARS-CoV-2 spike protein, Brazilian variant P.1) (SARS-CoV-2)
measured parameter: Kd (pM)
Respond with the bare value in pM.

{"binder": "Ab 29 scFv-Fc (scFv, V domains shown) VH: QVQLQQSGPGLVKPSQTLSLTCAISGDSVSSYSDAWNWIRQSPSRGLEWLGRTYYRSKWYNDYAVSVKSRITINPDTSKNQFSLQLSSVTPEDTAVYYCAREIVATTPFRNYYYGMDVWGQGTTVTVSS VL: NFMLTQPHSVSESPGNTVTISCTRTSGSIASNYVQWYQQRPGSSPTTVIFQDKLRPSGVPDRFSGSIDSSSNSASLTISGLKTEDEADYYCQSYDSSSLWVFGGGTKLTVL", "units label": "pM", "Kd": 8.45}
{"binder": "Ab 31 scFv-Fc (scFv, V domains shown) VH: QVQLVQSGAEVKKPGSSVKVSCKASGGTFSSYTISWVRQAPGQGLEWMGGIIPILGTPNYAQKFQDRVAITADKSTSTAYMELSSLRSEDTAVYYCAVGSGWYSGFDYWGQGTLVTVSS VL: NFMLTQPHSVSESPGKTVTISCTGSSGSIASNYVQWYQQRPGSAPTTVIYEDSQRPSGVPDRFSGSIDSSSNSASLTISGLKTEDEADYYCQSFHNSNPVIFGGGTKLTVL", "units label": "pM", "Kd": 8.97}
{"binder": "Ab 30 scFv-Fc (scFv, V domains shown) VH: QVQLVQSGGGVVQPGKSLRLSCTASGFTFSDFPIHWVRQAPGKGLEWVGVISYDGNIKYYGDSVKGRFTISRDNAKNSLYLQMNSLRVEDTAVYYCARGGSSFDIWGQGTTVTVSS VL: SYELTQPPSVSEAPRQRVTISCSGSTSNIGNNAVSWYQHLPGKAPKLLIYYNERLPSGVSDRFSGSKSGTSASLAISGLRSEDEADYYCAAWDDSLSGHVVFGGGTKLTVL", "units label": "pM", "Kd": 9.02}

Consider the record given below.
Measured Kd, Ab 38 scFv-Fc (scFv, V domains shown) VH: QVTLKESGPTLVKPTQTLTLTCTFSGFSLTTSGVSVGWIRQPPGKALEWLALIHWDDDKRYSPSLRSRLTITRDTSKNQVVLTVTDMDPADTGTYYCASFIMTVYAEYFEDWGQGTLVTVSS VL: EIVLTQSPATLSVSPGERATLSCRASQSVSSNLAWYQQKPGQAPRLLMYDVSTRATGIPARFSGSGSGTEFSLTISSLQSEDFAVYYCQQRGAWPLTFGGGTKVEIK : 7.23
